Origin of the recorded values: patent US6355799B1

# Tested on: large crabgrass (Digitaria sanguinalis, DIGSA)
# assay-notes: Post-emerge test, greenhouse herbicide activity screening
# Type: in vivo
# assay-conditions: post-emerge, 63 g ai/ha, phytotoxicity rating 0-100 at 14 days after application
Please note: 1.0 applies when Post-emerge Herbicidal Activity DIGSA is 10 or greater, and 0.0 applies otherwise.

# query-smiles, target-system, discrete-label
measured = [
    ("COc1cccc(COC(=O)Nc2c(C)c(Cl)cc(F)c2-n2c(=O)cc(C(F)(F)F)n(C)c2=O)c1", "large crabgrass (Digitaria sanguinalis, DIGSA)", 1.0),
    ("COc1c(Cl)cc(F)c(-n2ncc(C(F)(F)F)c(C)c2=O)c1NC(=O)c1ccc2ccccc2c1", "large crabgrass (Digitaria sanguinalis, DIGSA)", 1.0),
    ("Cc1cc(C)c(COC(=O)Nc2c(C)c(Cl)cc(F)c2-n2c(=O)cc(C(F)(F)F)n(C)c2=O)c(C)c1", "large crabgrass (Digitaria sanguinalis, DIGSA)", 1.0),
    ("O=C(Nc1cc(Cl)ccc1-n1c(=O)n2n(c1=S)CCCC2)c1ccc2ccccc2c1", "large crabgrass (Digitaria sanguinalis, DIGSA)", 0.0),
    ("C#CCOc1c(Cl)cc(F)c(-n2nnn(CCCF)c2=O)c1N", "large crabgrass (Digitaria sanguinalis, DIGSA)", 0.0),
]
